assay: in vivo; settings: BALB/c, mouse, po
observation-type: Cmax (ng/mL)
// return numeric value only (unit: ng/mL, not printed)

Input COc1cc2nccc(Oc3ccc(NC(=O)NC4CC4)c(Cl)c3)c2cc1C(N)=O.CS(=O)(=O)O [Form XI] . Output Cmax: 11500

====

experiment: in vivo; conditions: BALB/c, mouse, po
observation-type: Tmax (min)
// return numeric value only (unit: min, not printed)

Input COc1cc2nccc(Oc3ccc(NC(=O)NC4CC4)c(Cl)c3)c2cc1C(N)=O.CS(=O)(=O)O [Form XI] . Output Tmax: 50

====

assay: in vivo; conditions: BALB/c, mouse, po
observation-type: AUC(0-inf)
In your response, the unit should come after the numeric value.

Input COc1cc2nccc(Oc3ccc(NC(=O)NC4CC4)c(Cl)c3)c2cc1C(N)=O.CS(=O)(=O)O [Form XI] . Output AUC(0-inf): 38900 ng·h/mL

====

test: in vivo; details: BALB/c, mouse, po
observation-type: half-life (h)
// return numeric value only (unit: h, not printed)

Input COc1cc2nccc(Oc3ccc(NC(=O)NC4CC4)c(Cl)c3)c2cc1C(N)=O.CS(=O)(=O)O [Form XI] . Output half-life: 1.95

====

test: in vivo; conditions: BALB/c, mouse, po
observation-type: bioavailability (%)
// return numeric value only (unit: %, not printed)

Input COc1cc2nccc(Oc3ccc(NC(=O)NC4CC4)c(Cl)c3)c2cc1C(N)=O.CS(=O)(=O)O [Form XI] . Output bioavailability: 109
